Tested on: OVCAR-8 ovarian
procedure-details: NCI tumour cell line growth inhibition, 48 h
parameter: TGI

Some compounds with recorded TGI:
compound	TGI
N#CC(C#N)=C1c2ccccc2C(=NN)c2ccccc21	> 100 µM
N=C(N)C1CN(CCCCCCCCCCN2CC(C(=N)N)C(=O)NC2=O)C(=O)NC1=O (configuration not stated)	> 10 µM
O=c1[nH]nc(-c2ccccc2)n1Nc1ccccc1	> 100 µM
COC(=O)C(Cc1ccccc1)NP(=O)(O)OCC1OC(n2cc(Br)c(=O)[nH]c2=O)CC1O (configuration not stated)	> 100 µM
Cc1ccc(NCC(=O)N2CC(=O)Nc3ccccc32)c(C)c1	> 100 µM
COc1ccc(/C=C/C(=O)c2cc(OC)c(OC)c(OC)c2)cc1OCc1cn(Cc2ccc(F)cc2)nn1	31.5 µM
CC(=O)OC/C=C/[C@H](O[Si](C)(C)C(C)(C)C)[C@@H](O)/C=C/COC(C)=O	> 100 µM
C=C(CN1C(=O)CN(C)C1=O)c1ccc(C(=O)Nc2ccccc2N)cc1	> 100 µM

// TGI lookup, compound = Cc1nnn[n-]1.N.N.N.N.N.[Cl-].[Co+3] , result: > 100 µM

// TGI lookup, compound = O=C1Nc2ccccc2C1=Nc1cccc2ncccc12 , result: > 100 µM

// TGI lookup, compound = CC[C@H](CCCC[C@H]1CC[C@@H]2CC(=O)C[C@H]12)OC , result: > 100 µM

// TGI lookup, compound = O=C(O)CCC(=O)N1c2ccccc2CC1c1c[nH]c2ccccc12 (configuration not stated) , result: > 100 µM

---

System: K-562 leukemia
procedure-details: NCI tumour cell line growth inhibition, 48 h
parameter: TGI

molecule	TGI
Cc1cc(C)n(-c2nsc3ccccc23)n1	> 100 µM
c1coc(CNc2ncnc3[nH]ncc23)c1	> 100 µM

// TGI lookup, molecule = O=C(O)CCC(=O)N1c2ccccc2CC1c1c[nH]c2ccccc12 (stereo not drawn) , result: > 100 µM

// TGI lookup, molecule = CSC(=Nc1nnc(-c2ccc([N+](=O)[O-])cc2)s1)SC , result: > 100 µM

// TGI lookup, molecule = COc1ccc(CCCCl)c(C2=NCCc3cc(OC)c(OC)cc32)c1 , result: > 100 µM

// TGI lookup, molecule = CC(=O)c1ccc2c(c1)c1c(C)c3c[n+](C)ccc3c(C)c1n2C , result: > 72.2 µM

// TGI lookup, molecule = CC1=NN(c2cccc(Cl)c2)C(=N/c2nc3ccccc3s2)/C1=C\c1ccc(Cl)cc1 , result: > 100 µM

// TGI lookup, molecule = CCN(Cc1ccc(Cl)cc1)c1ccc(CO)c(Cl)c1 , result: > 45.5 µM

---

# TGI values compiled below
Test system: HOP-92 NSCLC
procedure-details: NCI tumour cell line growth inhibition, 48 h

Some compounds with recorded TGI:
compound	TGI
COC(=O)C1=C(C)C(=O)[C@]23C(CCCC[C@H]12)C(=O)[C@H](C(=O)OC)C3C (stereo partly drawn)	> 100 µM
Cc1ccc2nc(Cl)c(/C=N/N3C(=O)/C(=C/c4cccc([N+](=O)[O-])c4)N=C3c3ccccc3)cc2c1	> 100 µM

Next compound, TGI to be filled in.
// TGI lookup, compound = C[C@]12CC[C@@H]3c4ccc(O)cc4CC[C@H]3[C@@H]1CC[C@@H]2OP(=O)(O)O , result: > 100 µM

---

System: COLO 205 colon
procedure-details: NCI tumour cell line growth inhibition, 48 h
# GI50 values compiled below

Some compounds with recorded GI50:
COC12C=C/C(=C(/C(=O)OCc3cncnc3)C(=O)CCCCCCCCC3(OC)C=C/C(=C(/C(=O)OCc4cncnc4)C(=O)CCCCCCCC1)O3)O2 0.587 µM
CCOC(=O)/C(C=Nc1ccc(-c2nc3ccccc3[nH]2)cc1)=C(/C)O 10.7 µM

// GI50 lookup, compound = CCCCON(OC(=O)c1ccc2ccccc2c1)C(=O)c1ccccc1 , result: > 100 µM

// GI50 lookup, compound = C=C(CN1C(=O)CN(C)C1=O)c1ccc(C(=O)Nc2ccccc2N)cc1 , result: 9.24 µM

// GI50 lookup, compound = O=C1C(Cl)=C(Nc2cccc(F)c2)C(=O)N1Cc1ccc(Cl)cc1 , result: 0.516 µM

---

System: HL-60(TB) leukemia
procedure-details: NCI tumour cell line growth inhibition, 48 h
parameter: TGI

Some compounds with recorded TGI:
compound	TGI
COc1cccc(N2CCN(CC(=O)N3CCN(c4nnc(-c5ccc(Cl)cc5)c(-c5ccc(Cl)cc5)n4)CC3)CC2)c1	> 100 µM
Cc1cc(-c2cccc3ccccc23)c(C#N)c(=S)n1C1OC(CO)C(O)C(O)C1O (stereo unspecified)	> 100 µM
CN1CCN(C(=S)N(C(=O)c2ccc(Cl)cc2)c2ccccc2)CC1	> 100 µM

// TGI lookup, compound = CC1(C)C2C=C(CCN3CCOCC3)CC1C2 (stereo unspecified) , result: > 100 µM

// TGI lookup, compound = CC(=O)OCC1=C(C(=O)O)N2C(=O)C(NC(=O)CSc3ccncc3)C2SC1 (stereo unspecified) , result: > 100 µM

// TGI lookup, compound = COC(=O)[C@H](Cc1ccccc1)NP(=O)(OCCC#N)OCC1OC(n2cc(C)c(=O)[nH]c2=O)CC1N=[N+]=[N-] (stereo partly specified) , result: > 100 µM

// TGI lookup, compound = NC(=O)C(=O)N/N=C1\C(=O)N(c2ccc(Cl)cc2Cl)C(=O)C1C(=O)Nc1ccc(Cl)cc1Cl (stereo unspecified) , result: > 100 µM

// TGI lookup, compound = Cc1ccc(Cc2n[nH]c(=O)n2Nc2ccccc2)cc1 , result: > 100 µM

// TGI lookup, compound = CCc1cccc(C(C)(C)C)c1NC(=S)N/C=C(/C#N)C(N)=O , result: > 100 µM

// TGI lookup, compound = CC(=O)c1ccc2c(c1)c1c(C)c3c[n+](C)ccc3c(C)c1n2C , result: > 68.6 µM

// TGI lookup, compound = COc1ccc(C(=S)N2CCN(c3cccc(C)c3)CC2)cc1OC , result: > 100 µM

---

System: OVCAR-3 ovarian
procedure-details: NCI tumour cell line growth inhibition, 48 h
parameter: log10 of TGI (log10 of the value in µM)
Quick note: numbers are log10 of TGI, with µM as the unit.

Some compounds with recorded log10 of TGI:
compound	log10 of TGI
Fc1ccc(C(OCCN2CCN(CCCCl)CC2)c2ccc(F)cc2)cc1	1.87
Cc1ccc([N+](=O)[O-])cc1S(=O)(=O)Nc1ccc(C2=NOC(c3ccco3)C2)cc1 (centres undefined)	1.49
Clc1nc(Cl)c2ncn(CC3(Cn4cnc5c(Cl)nc(Cl)nc54)COC3)c2n1	-0.44
OCCOCCN1CCN(CCCN2c3ccccc3Sc3ccc(C(F)(F)F)cc32)CC1	1.52
C=C[C@@]1(C)CC[C@@H]2[C@@]3(C1)O[C@H]3CC1[C@](C)(C(=O)OC)CCC[C@@]12C (some centres undefined)	1.50

// log10 of TGI lookup, compound = CCN1CCC(O)(c2ccc(Oc3ccccc3)cc2)C(C(=O)c2ccc(Oc3ccccc3)cc2)C1 (centres undefined) , result: 1.50

---

# TGI values compiled below
Tested on: UACC-257 melanoma
procedure-details: NCI tumour cell line growth inhibition, 48 h

Some molecules with recorded TGI:
molecule	TGI
CCN(Cc1cc(Nc2nc(C)cn3c(-c4cn[nH]c4)cnc23)sn1)C(C)(C)CO	9.93 µM
Cc1cc(CC(=O)NCCO)n(CCO)c(=O)c1	> 100 µM
NCCCOc1ccc([N+](=O)[O-])cc1Cl	> 100 µM
N#CN=[N+]([O-])c1ccc(C(=O)O)cc1	32.7 µM

Tested on UACC-257 melanoma, the item O=C(c1ccccc1)c1ccccc1-c1ccccc1 showed TGI equal to > 100 µM

Tested on UACC-257 melanoma, the item CC(=O)NC1C(OC[C@@H](CC(=O)N[C@@H](CC(=O)O)CC(=O)N[C@H](CC(=O)N[C@@H](CCCN)CC(=O)N[C@@H](CCCN)CC(=O)N[C@H](CC(N)=O)C(C)C)C(C)C)NC(=O)C[C@@H](N)C(C)C)OC(CO)C(O)C1O (stereo partly drawn) showed TGI equal to > 100 µM

Tested on UACC-257 melanoma, the item CN(C)CCCNC(=O)c1c(O)c2ccccc2[nH]c1=O showed TGI equal to > 100 µM

Tested on UACC-257 melanoma, the item S=c1nc(N2CCCCC2)c2cn[nH]c2[nH]1 showed TGI equal to > 100 µM

Tested on UACC-257 melanoma, the item COc1ccc(CCCCl)c(C2=NCCc3cc(OC)c(OC)cc32)c1 showed TGI equal to > 100 µM

Tested on UACC-257 melanoma, the item COC(=O)C1CC23CCCN4CCC5(c6ccccc6N(C=O)C15CC2)C43 (stereo not drawn) showed TGI equal to > 100 µM

Tested on UACC-257 melanoma, the item Clc1nc(Cl)c2ncn(CC3(Cn4cnc5c(Cl)nc(Cl)nc54)COC3)c2n1 showed TGI equal to 0.427 µM

Tested on UACC-257 melanoma, the item CSC(=Nc1nnc(-c2ccc([N+](=O)[O-])cc2)s1)SC showed TGI equal to > 100 µM

Tested on UACC-257 melanoma, the item O=C1CSC(=S)N1 showed TGI equal to > 100 µM

Tested on UACC-257 melanoma, the item O=C(NNC(=S)Nc1ccccc1)c1cc(-c2ccccc2)nc2ccccc12 showed TGI equal to 60.1 µM
